The following compounds each carry a recorded EC50 for Nuclear receptor ROR-gamma (Homo sapiens, UniProt P51449).
recorded-endpoint: EC50 (nM)

// known answers, use as guide
INSERT INTO results (smiles_code, units_text, experimental_result) VALUES
  ('C/C(=C\c1ccc2c(c1)N(S(=O)(=O)c1cccc(OC(F)F)c1)C[C@H](CCC(=O)O)O2)c1c(F)cccc1Cl', 'nM', 195),
  ('O=C(O)C1(C[C@H]2CN(S(=O)(=O)c3cccc(C(F)(F)F)c3)c3cc(-c4cc(F)ccc4F)ccc3O2)COC1', 'nM', 10),
  ('CC(C)(C[C@H]1CN(S(=O)(=O)c2cccc(C(F)(F)F)c2)c2cc(-c3cc(F)ccc3F)ccc2O1)C(=O)O', 'nM', 13);

A = O=C(O)CC[C@H]1CN(S(=O)(=O)c2cccc(C(F)(F)F)c2)c2cc(-c3ccc(Cl)cc3)ccc2O1
B = O=C(O)CC[C@H]1CN(S(=O)(=O)c2cccc(C(F)(F)F)c2)c2cc(/C=C/c3ccc(Cl)cc3F)ccc2O1
Which item exceeds the other in EC50, A or B ? Identify your selection by its label.
B
